Assay: Microsomal stability in rat liver microsomes
Type: in vitro ADME
Conditions: Sprague-Dawley; rat liver microsomes, fu=1; read-out: intrinsic clearance (Clint) extrapolated to whole rat liver
# CLint scaled at 2 μM values compiled below

-- ask Look up CLint scaled at 2 μM for this compound: C=CCc1cccc(/C=N/NC(=O)CNC(=O)c2cccc(Cl)c2)c1O
-- reply 3.72 L/h/kg

Others:
-- ask Look up CLint scaled at 2 μM for this compound: O=C(CNC(=O)c1cccc2ccccc12)N/N=C/c1ccccc1O
-- reply 2.22 L/h/kg

---

# half-life at 2 μM values compiled below
Test: Microsomal stability in rat liver microsomes
Format: in vitro ADME
Details: Sprague-Dawley; rat liver microsomes 1 mg/ml, 2 μM compound, 37° C., NADPH; read-out: Half-life (t1/2)
Protocol: Sprague-Dawley rat liver microsomes (concentration 1 mg/ml) were incubated at 37° C. with 2 μM of compounds 2 or 3 in PBS containing 5 mM MgCl2 and 1 mM NADPH. The antihypertensive drug reserpine was used as a reference compound. […] Intrinsic clearance (Clint) estimates were determined using the rate of parent compound disappearance. The slope (-k) was determined by linear regression analysis from the linear portion of the natural logarithm of the test compound concentration versus time plot. […]
Kindly provide the numeric value in min only, without the unit symbol.

// solved cases for half-life at 2 μM follow
-- ask Look up half-life at 2 μM for this molecule: COC(=O)[C@H]1[C@H]2C[C@@H]3c4[nH]c5cc(OC)ccc5c4CCN3C[C@H]2C[C@@H](OC(=O)c2cc(OC)c(OC)c(OC)c2)[C@@H]1OC [reserpine, reference compound]
-- reply 43

-- ask Look up half-life at 2 μM for this molecule: C=CCc1cccc(/C=N/NC(=O)CNC(=O)c2cccc(Cl)c2)c1O [Compound 3]
-- reply 22

Here's the next entry for you.
-- ask Look up half-life at 2 μM for this molecule: O=C(CNC(=O)c1cccc2ccccc12)N/N=C/c1ccccc1O [Compound 2]
-- reply 33
